Tested on: KB-3-1
Test: Cytotoxic Profiling of Annotated Libraries Using Quantitative High-Throughput Screening (AID 1296008); also: % is scaled to controls: 0 for no effect and ±100 for the full control effect; nearly all actives have a fitted effect of over 60% in size
Settings: Five cell lines viability, CellTiter-Glo ATP luminescence, 48-72 h; stronger effect = lower value
Inconclusive results are not listed.
recorded endpoint: max response (%)
The reply should be a number in %, with the unit left off.

Would you please look over these solved cases?
smi=CC(C)COC(=O)OCN1C(=O)CN(CCN2CC(=O)N(COC(=O)OCC(C)C)C(=O)C2)CC1=O experimental_target=KB-3-1 value_reported=6.86
smi=CCOc1ccc(Cc2nccc3cc(OCC)c(OCC)cc23)cc1OCC experimental_target=KB-3-1 value_reported=1.15
smi=CC(=O)N/N=C/c1ccc([N+](=O)[O-])o1 experimental_target=KB-3-1 value_reported=-2.33
smi=COC(=O)C1=C(C)NC(C)=C(C(=O)O[C@@H]2CCCN(Cc3ccccc3)C2)[C@@H]1c1cccc([N+](=O)[O-])c1 experimental_target=KB-3-1 value_reported=7.74

Q: Answer with the recorded max response of `CC(=O)Nc1c(I)cc(I)c(C(=O)O)c1I` only.
Result: -17.1

----------
Experiment: qHTS drug screen for cell cycle checkpoint inhibitors in PARPi-resistant BRCA-mutant ovarian cancer cell lines. (AID 1963452)
Details: PEO1/OlaR viability, CellTiter-Glo luminescence, 96 h; measured here: PEO1 parental Z-AUC; stronger effect = lower value
Response field label takes Condition met when Z-AUC is strictly below -0.02 and Condition not met in all other cases.

smi=CC(=O)O[C@]1(C(C)=O)CC[C@H]2[C@@H]3C[C@H](C)C4=CC(=O)CC[C@]4(C)[C@H]3CC[C@@]21C category="Condition met"
smi=COc1c(C)c2c(c(O)c1C/C=C(\C)CCC(=O)O)C(=O)OC2 category="Condition met"
smi=COc1cccc2c1C(=O)c1c(O)c3c(c(O)c1C2=O)C[C@@](O)(C(C)=O)C[C@@H]3O[C@H]1C[C@H](N)[C@H](O)[C@H](C)O1 category="Condition met"

Q: Strictly below -0.02 in Z-AUC? `C[C@]12CC[C@@H]3c4ccc(O)cc4CC[C@H]3[C@@H]1CC[C@@H]2O`
Result: Condition not met

Q: Strictly below -0.02 in Z-AUC? `Cc1cc2c(cc1CC(=O)c1sccc1S(=O)(=O)Nc1onc(C)c1Cl)OCO2`
Result: Condition not met

----------
System: 7G8
Test: qHTS profiling for inhibitors of Plasmodium falciparum proliferation (AID 504749);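 also: 0% = DMSO vehicle and full inhibition = artemisinin control; nearly all actives have a fitted effect of over 60% in size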
Conditions: P. falciparum in erythrocytes, SYBR Green DNA, 72 h; series mostly up to 28.7 µM
Results filed as inconclusive are left out. The source made the active and inactive calls. Calls come from the whole dose curve; as a rule, active = well fitted inhibition curve with a large enough effect; inconclusive = small, poorly fitted or top-dose-only effect; inactive = flat fitted curve, though single readings scatter.
// classify into active, inactive

Example entries begin here.
compound=NCCc1ccn[nH]1 category=inactive
compound=Cc1cccn2c(=O)c(-c3nnn[nH]3)cnc12 category=inactive
compound=COc1ccc(C2C(=O)c3ccccc3C2=O)cc1 category=inactive
compound="CN1C(CCl)Nc2cc(Cl)c(S(N)(=O)=O)cc2S1(=O)=O (stereo not given)" category=inactive
compound=Oc1c(Cl)cc(Cl)cc1Sc1cc(Cl)cc(Cl)c1O category=inactive

Q: Which outcome was assigned to `CCCCOc1ccc(OCCCN2CCOCC2)cc1` in this test?
Result: inactive

----------
Test: Cellular Toxicity (caspase-3) HepG2 (AID 654);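 as to caspase-3 activation: cells exposed to compound for 16 hours before reading; 0% = DMSO alone and 100% = caspase signal from 100 µM tamoxifen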
Conditions: HepG2 caspase-3 activation, luminescence; series mostly up to 92.2 µM
The source made the active and inactive calls. Calls come from the whole dose curve; as a rule, active = well fitted activation curve with a large enough effect; inconclusive = small, poorly fitted or top-dose-only effect; inactive = flat fitted curve, though single readings scatter.
// classify into Yes (active), No (inactive)

smi=O=C(O)CCCCC(=O)O category=No
smi=CC/C(=C(/CC)c1ccc(O)cc1)c1ccc(O)cc1 category=No
smi=Nc1ccc(C(=O)O)cc1 category=No
smi=CC(C)(C)CC(C)(C)c1ccc(OCCOCC[N+](C)(C)Cc2ccccc2)cc1 category=Yes

Q: Which outcome was assigned to `C=CCc1ccc(O)c(OC)c1` in this test?
Result: No

Q: Which outcome was assigned to `Oc1c(Cl)cc(Cl)cc1Sc1cc(Cl)cc(Cl)c1O` in this test?
Result: No

Q: Which outcome was assigned to `NC(=NCCCCCCN=C(N)/N=C(\N)Nc1ccc(Cl)cc1)/N=C(\N)Nc1ccc(Cl)cc1` in this test?
Result: No

Q: Which outcome was assigned to `C[C@]12CC[C@@H]3c4ccc(O)cc4CC[C@H]3[C@@H]1CC[C@@H]2O` in this test?
Result: No
